# test.description: Clearance in rat at 5 umol/kg, iv
# Type: ADME, organism-based
# run.parameters: in vivo

[
  {
    "query.smiles": "N#Cc1cc(CN2CCC2)cnc1-c1ccc(C(=O)Nc2ccccc2N)cc1",
    "output.unit": "mL/min/kg",
    "clearance": 19.6
  },
  {
    "query.smiles": "Nc1ccccc1NC(=O)c1ccc(-c2ncc(CN3CCC3)cc2F)cc1",
    "output.unit": "mL/min/kg",
    "clearance": 34
  },
  {
    "query.smiles": "N#Cc1cccnc1-c1ccc(C(=O)Nc2ccccc2N)cc1",
    "output.unit": "mL/min/kg",
    "clearance": 56.1
  },
  {
    "query.smiles": "Cc1cc(CN2CCC2)cnc1-c1ccc(C(=O)Nc2ccccc2N)cc1",
    "output.unit": "mL/min/kg",
    "clearance": 30.2
  }
]
